- Assayed Target: HPK1 (Homo sapiens, UniProt Q92918)
- Construct: A HiBiT tag was introduced by CRISPR on the N terminus of HPK1 in Jurkat cells; host or cells: Jurkat cells (ATCC TIB-152), monoclonal line with CRISPR knock-in of HiBiT at the endogenous HPK1 locus
- Sequence (Q92918 whole entry): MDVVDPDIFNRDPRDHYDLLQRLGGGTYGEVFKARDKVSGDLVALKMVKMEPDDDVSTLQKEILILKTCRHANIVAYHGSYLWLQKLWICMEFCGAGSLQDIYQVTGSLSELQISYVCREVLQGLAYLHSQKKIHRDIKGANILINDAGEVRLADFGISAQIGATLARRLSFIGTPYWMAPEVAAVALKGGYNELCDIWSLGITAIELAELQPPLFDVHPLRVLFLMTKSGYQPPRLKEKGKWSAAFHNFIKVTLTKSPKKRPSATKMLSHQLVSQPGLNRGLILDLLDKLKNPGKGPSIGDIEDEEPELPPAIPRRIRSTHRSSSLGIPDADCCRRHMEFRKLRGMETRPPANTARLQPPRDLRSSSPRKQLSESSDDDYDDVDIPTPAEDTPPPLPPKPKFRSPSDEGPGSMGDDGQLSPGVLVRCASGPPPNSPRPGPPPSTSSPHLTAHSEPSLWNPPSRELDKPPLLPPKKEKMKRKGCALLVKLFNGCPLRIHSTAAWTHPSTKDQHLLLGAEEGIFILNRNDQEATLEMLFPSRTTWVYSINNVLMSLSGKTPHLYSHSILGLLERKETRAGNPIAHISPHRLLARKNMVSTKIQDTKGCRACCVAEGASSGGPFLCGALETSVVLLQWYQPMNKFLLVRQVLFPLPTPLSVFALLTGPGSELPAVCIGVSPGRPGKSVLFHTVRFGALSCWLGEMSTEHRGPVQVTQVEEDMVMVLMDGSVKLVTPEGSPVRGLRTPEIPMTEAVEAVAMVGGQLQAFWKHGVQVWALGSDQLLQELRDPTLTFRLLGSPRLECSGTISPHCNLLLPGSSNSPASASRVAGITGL
- Assay Overview: HPK1 Cellular HiBit Degradation Assay
- Type: cell-based
- Condition: Jurkat, HiBiT HPK1 Jurkat cells, 24 hrs; maximum degradation vs DMSO vehicle control; read-out: Dmax Category
Measured Metric: Dmax

Worked examples, 5 compounds total:
1) CC(C)n1cnc2cc(-c3ccc4c(c3)N([C@H]3C[C@@H](N5CCCCC5)C3)C(=O)C43CCN(C(=O)[C@@H]4[C@H]5CCN(C(=O)C6CCN(c7ccc(C8CCC(=O)NC8=O)cn7)CC6)[C@H]54)CC3)nc(Nc3ccccc3F)c21 (mixture of isomers) [Example 266]; 70 to 85%
2) CC(C)n1cnc2cc(-c3ccc4c(c3)N([C@H]3C[C@@H](N5CCCCC5)C3)C(=O)C43CCN(C(=O)C4(C)CCN(C(=O)[C@H]5CC[C@H](Oc6ccc(C7CCC(=O)NC7=O)cn6)CC5)CC4)CC3)nc(NC3CC3)c21 (mixture of isomers) [Example 104]; 70 to 85%
3) CC(C)n1cnc2cc(-c3ccc4c(c3)N([C@H]3C[C@@H](N5CCCCC5)C3)C(=O)C43CCN(C(=O)[C@H]4CC[C@@H](C(=O)N5CCC(Nc6ccc(C7CCC(=O)NC7=O)cn6)CC5)CC4)CC3)nc(NC3CC3)c21 (mixture of isomers) [Example 29]; 50 to 70%
4) CC(C)n1cnc2cc(-c3ccc4c(c3)N([C@H]3C[C@@H](N5CCCCC5)C3)C(=O)C43CCN(C(=O)[C@H]4CC[C@H](C(=O)N5CCC(Nc6ccc(C7CCC(=O)NC7=O)cn6)CC5)CC4)CC3)nc(Nc3ccncc3F)c21 (mixture of isomers) [Example 27]; 50 to 70%
5) CC(C)n1cnc2cc(-c3ccc4c(c3)N([C@H]3C[C@@H](N5C6CCC5COC6)C3)C(=O)C43CCN(C(=O)C4(C)CCN(C(=O)C5CCN(c6ccc(C7CCC(=O)NC7=O)cn6)CC5)CC4)CC3)nc(NC3CC3)c21 (mixture of isomers) [Example 215]; 70 to 85%

Print HPK1 (Homo sapiens, UniProt Q92918) Dmax for CC(C)n1cnc2cc(-c3ccc4c(c3)N([C@H]3C[C@@H](N5CCCCC5)C3)C(=O)C43CCN(C(=O)C4(C)CCN(C(=O)C5CCN(c6ccc(C7CCC(=O)NC7=O)cn6)CC5)CC4)CC3)nc(N[C@H]3C[C@H](C#N)C3)c21 (some centres unmarked) [Example 176] .
70 to 85%

Print HPK1 (Homo sapiens, UniProt Q92918) Dmax for CC(C)n1cnc2cc(-c3ccc4c(c3)N([C@H]3C[C@@H](N5CCCCC5)C3)C(=O)C43CCN(C(=O)[C@H]4C[C@H]5C[C@@H]4CN5C(=O)C4CCN(c5ccc(C6CCC(=O)NC6=O)cn5)CC4)CC3)nc(NC3CC3)c21 (mixture of isomers) [Example 261] .
70 to 85%

Print HPK1 (Homo sapiens, UniProt Q92918) Dmax for Cc1cc(F)c(Nc2nc(-c3ccc4c(c3)N([C@H]3C[C@@H](N5CCCCC5)C3)C(=O)C43CCN(C(=O)C4CCN(CC5CCN(c6cccc7c6n(C)c(=O)n7C6CCC(=O)NC6=O)CC5)CC4)CC3)cc3ncn(C(C)C)c23)cc1C(=O)NC(C)C (mixture of isomers) [Example 142] .
70 to 85%

----------
- Assayed Target: HPK1 (Homo sapiens, UniProt Q92918)
- Construct: A HiBiT tag was introduced by CRISPR on the N terminus of HPK1 in Jurkat cells; host or cells: Jurkat cells (ATCC TIB-152), monoclonal line with CRISPR knock-in of HiBiT at the endogenous HPK1 locus
- Assay Overview: HPK1 Cellular HiBit Degradation Assay
- Type: cell-based
- Condition: HiBiT HPK1 Jurkat cells, 24 hrs; maximum degradation vs DMSO vehicle control
- Protocol: HPK1 Cellular HiBit Degradation Assay A HiBiT tag was introduced by CRISPR on the N terminus of HPK1 in Jurkat cells (ATCC® TIB-152) to allow quantitation of HPK1 protein levels in a monoclonal human cell line. […] Cells were incubated for 10 min at room temperature and luminescence was read on an EnVision plate reader (Perkin Elmer, 0.1 sec per well). […] Percent HPK1 remaining per sample was calculated as follows: […]
Measured Metric: Dmax Category

1. CC(C)n1cnc2cc(-c3ccc4c(c3)N([C@H]3C[C@@H](N5CCCCC5)C3)C(=O)C43CCN(C(=O)C4(C)CCN(C(=O)C5CCN(c6ccc([C@H]7CCC(=O)NC7=O)cn6)CC5)CC4)CC3)nc(NC3CC3)c21 [Example 213]; B (B: >70%-<85%)
2. CC(C)n1cnc2cc(-c3ccc4c(c3)N([C@H]3C[C@@H](N5CCCCC5)C3)C(=O)C43CCN(C(=O)C4(C)CCN(C(=O)C5CCN(c6ccc([C@H]7CCC(=O)NC7=O)cn6)CC5)CC4)CC3)nc(NC3CC3)c21 (single isomer, unassigned) [Example 212]; B (B: >70%-<85%)
3. CC(C)n1cnc2cc(-c3ccc4c(c3)N([C@H]3C[C@@H](N5CCCCC5)C3)C(=O)C43CCN(C(=O)c4ccc(C(=O)NC5CCN(c6ccc7c(c6)C(=O)N(C6CCC(=O)NC6=O)C7=O)CC5)cc4)CC3)nc(NC3CC3)c21 (mixture of isomers) [Example 44]; B (B: >70%-<85%)

----------
- Assayed Target: HPK1 (Homo sapiens, UniProt Q92918)
- Construct: A HiBiT tag was introduced by CRISPR on the N terminus of HPK1 in Jurkat cells; host or cells: Jurkat cells (ATCC TIB-152), monoclonal line with CRISPR knock-in of HiBiT at the endogenous HPK1 locus
- Assay Overview: HPK1 Cellular HiBit Degradation Assay
- Type: cell-based
- Condition: HiBiT HPK1 Jurkat cells, 24 hrs; concentration at which 50% of HPK1 was remaining; read-out: DC50 Category
Measured Metric: DC50

Worked examples, 3 compounds total:
1) CC(C)n1cnc2cc(-c3ccc4c(c3)N([C@H]3C[C@@H](N5CCCCC5)C3)C(=O)C43CCN(C(=O)[C@H]4CCN(C(=O)C5CCN(c6ccc(C7CCC(=O)NC7=O)cn6)CC5)C[C@H]4C)CC3)nc(NC3CC3)c21 (mixture of isomers) [Example 247]; < 100 nM
2) CC(C)n1cnc2cc(-c3ccc4c(c3)N([C@H]3C[C@@H](N5CCCCC5)C3)C(=O)C43CCN(C(=O)C45CC(CN(C(=O)C6CCN(c7ccc(C8CCC(=O)NC8=O)cn7)CC6)C4)C5)CC3)nc(NC3CC3)c21 (mixture of isomers) [Example 271]; < 100 nM
3) CC(C)n1cnc2cc(-c3ccc4c(c3)N([C@H]3C[C@@H](N5CCCCC5)C3)C(=O)C43CCN(C(=O)[C@H]4CCN(C(=O)C5CCN(c6ccc(C7CCC(=O)NC7=O)cn6)CC5)C4)CC3)nc(Nc3ccncc3F)c21 (mixture of isomers) [Example 34]; 100 to 500 nM

Entry CC(C)n1cnc2cc(-c3ccc4c(c3)N([C@H]3C[C@@H](N5C6COCC5C6)C3)C(=O)C43CCN(C(=O)C4(C)CCN(C(=O)C5CCN(c6ccc(C7CCC(=O)NC7=O)cc6)CC5)CC4)CC3)nc(NC3CC3)c21 (mixture of isomers) [Example 195] needs its DC50 filled in; supply it.
500 to 1000 nM

----------
- Assayed Target: HPK1 (Homo sapiens)
- Construct: A HiBiT tag was introduced by CRISPR on the N terminus of HPK1 in Jurkat cells; host or cells: Jurkat cells (ATCC TIB-152), monoclonal line with CRISPR knock-in of HiBiT at the endogenous HPK1 locus
- Assay Overview: HPK1 Cellular HiBit Degradation Assay
- Format: cell-based
- Condition: HiBiT HPK1 Jurkat cells, 24 hrs; concentration at which 50% of HPK1 was remaining; read-out: DC50 Category
Here the recorded DC50 is given for each entry.

Worked examples, 4 compounds total:
1) CC(C)n1cnc2cc(-c3ccc4c(c3)N([C@H]3C[C@@H](N5CCCCC5)C3)C(=O)C43CCN(C(=O)C4(C)CCN(C(=O)[C@H]5CC[C@H](Nc6ccc(N7CCC(=O)NC7=O)cn6)CC5)CC4)CC3)nc(NC3CC3)c21 [Example 192]; < 100 nM
2) CC(C)n1cnc2cc(-c3ccc4c(c3)N([C@H]3C[C@@H](N5CCCCC5)C3)C(=O)C43CCN(C(=O)c4ccc(C5CCN(C(=O)C6CCN(c7ccc(C8CCC(=O)NC8=O)cn7)CC6)CC5)cc4)CC3)nc(NC3CC3)c21 (mixture of isomers) [Example 302]; 100 to 500 nM
3) CC(C)n1cnc2cc(-c3ccc4c(c3)N([C@H]3C[C@@H](N5CCCCC5)C3)C(=O)C43CCN(C(=O)C4CCN(C(=O)[C@H]5CC[C@H](C(=O)N6CCCc7cc(C8CCC(=O)NC8=O)ccc76)CC5)CC4)CC3)nc(Nc3ccccc3F)c21 (mixture of isomers) [Example 51]; < 100 nM
4) CC(C)n1cnc2cc(-c3ccc4c(c3)N([C@H]3C[C@@H](N5CCCCC5)C3)C(=O)C43CCN(C(=O)C4CN(C(=O)C5CCN(c6ccc(C7CCC(=O)NC7=O)cn6)CC5)CCC45CCC5)CC3)nc(NC3CC3)c21 (mixture of isomers) [Example 287]; < 100 nM

Print HPK1 (Homo sapiens) DC50 for CC(C)n1cnc2cc(-c3ccc4c(c3)N([C@H]3C[C@@H](N5CCCCC5)C3)C(=O)C43CCN(C(=O)C4CCC5(CCN(C(=O)C6CCN(c7ccc(C8CCC(=O)NC8=O)cn7)CC6)CC5)C4)CC3)nc(NC3CC3)c21 (mixture of isomers) [Example 294] .
100 to 500 nM

Print HPK1 (Homo sapiens) DC50 for CC(C)n1cnc2cc(-c3ccc4c(c3)N([C@H]3C[C@@H](N5CCCCC5)C3)C(=O)C43CCN(C(=O)C4(C)CCN(C(=O)C5CCN(c6ccc(C7CCC(=O)NC7=O)cn6)CC5)CC4)CC3)nc(NC3CC3)c21 (mixture of isomers) [Example 113] .
< 100 nM

Print HPK1 (Homo sapiens) DC50 for CC(C)n1cnc2cc(-c3ccc4c(c3)N([C@H]3C[C@@H](N5C6COCC5C6)C3)C(=O)C43CCN(C(=O)C4(C)CCN(C(=O)C5CCN(c6ccc(C7CCC(=O)NC7=O)cn6)CC5)CC4)CC3)nc(NC3CC3)c21 (mixture of isomers) [Example 218] .
100 to 500 nM

Print HPK1 (Homo sapiens) DC50 for CC(C)n1cnc2cc(-c3ccc4c(c3)N([C@H]3C[C@@H](N5CCCCC5)C3)C(=O)C43CCN(C(=O)[C@@H]4CCCN(C(=O)[C@H]5CC[C@H](Oc6ccc(C7CCC(=O)NC7=O)cc6)CC5)C4)CC3)nc(NC3CC3)c21 (mixture of isomers) [Example 234] .
< 100 nM
